tested on: edema in the hind paws (carrageenan); experiment: carrageenan-induced hind paw edema, oral administration; format: in vivo, male Wistar rats; details: Rattus norvegicus, 10 mg/kg orally, 3 hr, read-out: Inhibition (%) 3 hr
Provide the recorded inhibition in vivo at 10 mg/kg for the entries that follow.

Qu. In one line, give reported inhibition in vivo at 10 mg/kg of the entry CC(C(=O)O)c1ccc2c(c1)CCc1cccnc1S2 (centres unmarked) .
Ans. 69%

Qu. In one line, give reported inhibition in vivo at 10 mg/kg of the entry CC(C(=O)O)c1ccc2c(c1)Sc1ccccc1CC2 (centres unmarked) .
Ans. 27.5%

Qu. In one line, give reported inhibition in vivo at 10 mg/kg of the entry CC(C(N)=O)c1cccc2c1Oc1ccccc1CC2=O (centres unmarked) .
Ans. 35.4%

Qu. In one line, give reported inhibition in vivo at 10 mg/kg of the entry CC(C(=O)O)c1ccc2c(c1)CCc1ccccc1O2 (centres unmarked) .
Ans. 65.4%

Qu. In one line, give reported inhibition in vivo at 10 mg/kg of the entry CCOC(=O)C(C)c1ccc2c(c1)CCc1ccccc1O2 (centres unmarked) .
Ans. 60.3%

Qu. In one line, give reported inhibition in vivo at 10 mg/kg of the entry COc1ccc2c(c1)c(CC(=O)O)c(C)n2C(=O)c1ccc(Cl)cc1 [Indomethacin, reference compound] .
Ans. 52.1%

Qu. In one line, give reported inhibition in vivo at 10 mg/kg of the entry CC(C(=O)O)c1ccc2c(c1)Oc1ccccc1CC2=O (centres unmarked) .
Ans. 50.7%

Qu. In one line, give reported inhibition in vivo at 10 mg/kg of the entry O=C(O)c1ccccc1Nc1cccc(C(F)(F)F)c1 [Flufenamic acid, reference compound] .
Ans. 26.8%

Qu. In one line, give reported inhibition in vivo at 10 mg/kg of the entry CC(C(=O)O)c1ccc2c(c1)C(=O)Cc1cccnc1S2 (centres unmarked) .
Ans. 47.5%

Qu. In one line, give reported inhibition in vivo at 10 mg/kg of the entry CC(C(=O)O)c1ccc2c(c1)Sc1ncccc1CC2 (centres unmarked) .
Ans. 49.9%

Qu. In one line, give reported inhibition in vivo at 10 mg/kg of the entry CCOC(=O)C(C)c1ccc2c(c1)C(=O)Cc1ccccc1O2 (centres unmarked) .
Ans. 64.9%

Qu. In one line, give reported inhibition in vivo at 10 mg/kg of the entry CC(C(=O)O)c1ccc2c(c1)Sc1ccccc1CC2=O (centres unmarked) .
Ans. 31.8%

Qu. In one line, give reported inhibition in vivo at 10 mg/kg of the entry CC(C(N)=O)c1ccc2c(c1)C(=O)Cc1ccccc1S2 (centres unmarked) .
Ans. 70.5%

Qu. In one line, give reported inhibition in vivo at 10 mg/kg of the entry CCCCC1C(=O)N(c2ccccc2)N(c2ccccc2)C1=O [Phenyl butazone, reference compound] .
Ans. 27.4%

Qu. In one line, give reported inhibition in vivo at 10 mg/kg of the entry CC(C(=O)O)c1cccc2c1Oc1ccccc1CC2 (centres unmarked) .
Ans. 28.2%

Qu. In one line, give reported inhibition in vivo at 10 mg/kg of the entry CCOC(=O)C(C)c1ccc2c(c1)C(=O)Cc1ccccc1S2 (centres unmarked) .
Ans. 79.9%

Qu. In one line, give reported inhibition in vivo at 10 mg/kg of the entry CCOC(=O)C(C)c1ccc2c(c1)CCc1cccnc1S2 (centres unmarked) .
Ans. 59.1%

Qu. In one line, give reported inhibition in vivo at 10 mg/kg of the entry CCOC(=O)C(C)c1ccc2c(c1)Sc1ccccc1CC2 (centres unmarked) .
Ans. 26.9%

Qu. In one line, give reported inhibition in vivo at 10 mg/kg of the entry CC(C(=O)O)c1ccc2c(c1)CCc1ccccc1S2 (centres unmarked) .
Ans. 54.6%

Qu. In one line, give reported inhibition in vivo at 10 mg/kg of the entry CCOC(=O)C(C)c1ccc2c(c1)CCc1ccccc1S2 (centres unmarked) .
Ans. 67.4%
